Each record here notes measured Potency.
# method-description: Cell Viability - LYMP1-002 - Assay at 40 hr (AID 994); further: potency means the concentration at half of the fitted maximal effect; nearly all actives have a fitted effect of over 60% in size
# experimental-conditions: LYMP1-002 lymphoblastoid cell viability; series mostly up to 92.2 µM
Records with an inconclusive call do not appear. The source made the active and inactive calls. The call rests on the fitted dose curve; in most records, active means well fitted cell-killing curve with a large enough effect; inconclusive means small, poorly fitted or top-dose-only effect; inactive means flat fitted curve, though single readings scatter.

{"compound-string": "O=C(CCl)c1ccc(Cl)cc1Cl", "Potency": "25.1 µM (active)"}
{"compound-string": "Oc1ccc(Cl)cc1Sc1cc(Cl)ccc1O", "Potency": "50.1 µM (active)"}
{"compound-string": "COC(=O)C1=C(C)NC(C)=C(C(=O)OC)C1c1ccccc1[N+](=O)[O-]", "Potency": "39.8 µM (active)"}
{"compound-string": "CC[n+]1c(-c2ccccc2)c2cc(N)ccc2c2ccc(N)cc21", "Potency": "31.6 µM (active)"}

---

# method-description: Drug repurposing screens with cells derived from glioblastoma tumor samples (AID 1345199); further: on the % scale 0 is the no-effect control and ±100 the full control effect; nearly all actives have a fitted effect of over 40% in size
# experimental-conditions: GBM patient neurospheres viability, ATP luminescence, 48 h; at 45.9 µM (top of the series); tumour line D
Results filed as inconclusive are left out. The source made the active and inactive calls. Calls follow the shape of the dose curve; as a rule, active = well fitted inhibition curve with a large enough effect; inconclusive = small, poorly fitted or top-dose-only effect; inactive = flat fitted curve, though single readings scatter.
property-measured: activity, negative = cell killing

{"molecule": "CCN(Cc1ccc(Cl)nc1)/C(=C/[N+](=O)[O-])NC", "property-measured": "activity, negative = cell killing", "experimental-value": "-5.99% (inactive)"}
{"molecule": "C[N+]1(CCC(C(N)=O)(c2ccccc2)c2ccccc2)CCCCC1", "property-measured": "activity, negative = cell killing", "experimental-value": "-19.9% (inactive)"}
{"molecule": "CC(C)(C)OC(=O)c1ncn2c1[C@@H]1CCCN1C(=O)c1c(Br)cccc1-2", "property-measured": "activity, negative = cell killing", "experimental-value": "-11.3% (inactive)"}
{"molecule": "CC(Cc1ccccc1)NCc1ccccc1Cl (stereo not given)", "property-measured": "activity, negative = cell killing", "experimental-value": "-38.9% (inactive)"}
{"molecule": "CNC(=O)NC(O)C(Cl)(Cl)Cl (stereo not given)", "property-measured": "activity, negative = cell killing", "experimental-value": "7% (inactive)"}
{"molecule": "COCC(=O)N(c1c(C)cccc1C)C(C)C(=O)OC (stereo not given)", "property-measured": "activity, negative = cell killing", "experimental-value": "-6.37% (inactive)"}
{"molecule": "O=C(CCl)c1ccc(Cl)cc1Cl", "property-measured": "activity, negative = cell killing", "experimental-value": "-23.6% (inactive)"}
{"molecule": "CCN(CC)Cc1nccn1-c1ccc([N+](=O)[O-])cc1C(=O)c1ccccc1Cl", "property-measured": "activity, negative = cell killing", "experimental-value": "-13.7% (inactive)"}
{"molecule": "C[C@H]1CNCCc2ccc(Cl)cc21", "property-measured": "activity, negative = cell killing", "experimental-value": "-14.1% (inactive)"}
{"molecule": "COc1ccc2c(C(=O)c3ccc(Cl)cc3)c(C)n(CC(=O)O)c2c1", "property-measured": "activity, negative = cell killing", "experimental-value": "-19.1% (inactive)"}
{"molecule": "CCCCCCCCC(=O)NCc1ccc(O)c(OC)c1", "property-measured": "activity, negative = cell killing", "experimental-value": "-6.9% (inactive)"}
{"molecule": "O=C(N[C@@H]1N=C(c2ccccc2F)c2cccc3c2N(CC3)C1=O)c1cc2ccccc2[nH]1", "property-measured": "activity, negative = cell killing", "experimental-value": "-3.25% (inactive)"}
{"molecule": "Cc1cccc(Cc2cnc[nH]2)c1C", "property-measured": "activity, negative = cell killing", "experimental-value": "-4.57% (inactive)"}
{"molecule": "CCCC(C)C1(CC)C(=O)N=C(S)NC1=O (stereo not given)", "property-measured": "activity, negative = cell killing", "experimental-value": "-14.3% (inactive)"}
{"molecule": "CCOC(=O)NC(C)(C)Cc1ccc(Cl)cc1", "property-measured": "activity, negative = cell killing", "experimental-value": "-16.7% (inactive)"}
{"molecule": "CN1C(=O)CN=C(c2ccccc2)c2cc(Cl)ccc21", "property-measured": "activity, negative = cell killing", "experimental-value": "-1.05% (inactive)"}
{"molecule": "Oc1ccc([C@H]2CNCc3c2ccc(O)c3O)cc1O", "property-measured": "activity, negative = cell killing", "experimental-value": "-11.1% (inactive)"}
{"molecule": "COP(=O)(OC)C(O)C(Cl)(Cl)Cl (stereo not given)", "property-measured": "activity, negative = cell killing", "experimental-value": "-9.43% (inactive)"}
{"molecule": "CCOC(=O)NC(O)C(Cl)(Cl)Cl (stereo not given)", "property-measured": "activity, negative = cell killing", "experimental-value": "-2.34% (inactive)"}
{"molecule": "C[N+]1(C)[C@@H]2CC[C@H]1CC(OC(=O)C(CO)c1ccccc1)C2 (stereo not given in full)", "property-measured": "activity, negative = cell killing", "experimental-value": "-16.2% (inactive)"}
{"molecule": "C[N+](C)(C)CCOC(=O)C(O)(c1ccccc1)c1ccccc1", "property-measured": "activity, negative = cell killing", "experimental-value": "-23.3% (inactive)"}
{"molecule": "Cc1ncc2n1-c1ccc(Cl)cc1C(c1ccccc1F)=NC2", "property-measured": "activity, negative = cell killing", "experimental-value": "-1.25% (inactive)"}
{"molecule": "CC(C)C(Br)C(=O)NC(N)=O (stereo not given)", "property-measured": "activity, negative = cell killing", "experimental-value": "-12.7% (inactive)"}
{"molecule": "c1cc2c(c(N3CCNCC3)c1)OCCO2", "property-measured": "activity, negative = cell killing", "experimental-value": "-0.968% (inactive)"}
{"molecule": "CN1C(=O)CN=C(c2ccccc2)c2cc([N+](=O)[O-])ccc21", "property-measured": "activity, negative = cell killing", "experimental-value": "-22.1% (inactive)"}

All figures here come from PubChem BioAssay (NCATS).
